Here's what we have: log10 MIC numbers for E. coli ATCC 25922.
Readout Label: log10 MIC (log10 of the value in µM)

Compound	Target Or System	log10 MIC
COc1cccc2c(C(=O)C(=O)NCCCNCCCCCCCCCCCCNCCCNC(=O)C(=O)c3c[nH]c4c(OC)cccc34)c[nH]c12 [Compound 22e]	E. coli ATCC 25922	1.10
O=C(NCCCNCCCCCCCCCCNCCCNC(=O)C(=O)c1c[nH]c2ccccc12)C(=O)c1c[nH]c2ccccc12.O=C(O)C(F)(F)F.O=C(O)C(F)(F)F [Compound 17d]	E. coli ATCC 25922	2.07
COc1ccc2[nH]cc(C(=O)C(=O)NCCCNCCCCCCCCCCCCNCCCNC(=O)C(=O)c3c[nH]c4ccc(OC)cc34)c2c1 [Compound 19e]	E. coli ATCC 25922	2.00
Cc1ccc2[nH]cc(C(=O)C(=O)NCCCNCCCCCCNCCCNC(=O)C(=O)c3c[nH]c4ccc(C)cc34)c2c1.O=C(O)C(F)(F)F.O=C(O)C(F)(F)F [Compound 20a]	E. coli ATCC 25922	1.70
O=C(NCCCNCCCCCCCNCCCNC(=O)C(=O)c1c[nH]c2ccccc12)C(=O)c1c[nH]c2ccccc12.O=C(O)C(F)(F)F.O=C(O)C(F)(F)F [Compound 17b]	E. coli ATCC 25922	1.40
O=C(NCCCNCCCCCCNCCCNC(=O)C(=O)c1c[nH]c2c(F)cccc12)C(=O)c1c[nH]c2c(F)cccc12.O=C(O)C(F)(F)F.O=C(O)C(F)(F)F [Compound 21a]	E. coli ATCC 25922	2.38
O=C(NCCCNCCCCCCCCNCCCNC(=O)C(=O)c1c[nH]c2ccccc12)C(=O)c1c[nH]c2ccccc12 [Compound 17c]	E. coli ATCC 25922	1.10
Cc1cccc2c(C(=O)C(=O)NCCCNCCCCCCCCCCNCCCNC(=O)C(=O)c3c[nH]c4c(C)cccc34)c[nH]c12.O=C(O)C(F)(F)F.O=C(O)C(F)(F)F [Compound 23d]	E. coli ATCC 25922	1.15
O=C(NCCCNCCCCCCCNCCCNC(=O)C(=O)c1c[nH]c2ccc(Br)cc12)C(=O)c1c[nH]c2ccc(Br)cc12.O=C(O)C(F)(F)F.O=C(O)C(F)(F)F [Compound 18b]	E. coli ATCC 25922	1.71
Cc1ccc2[nH]cc(C(=O)C(=O)NCCCNCCCCCCCCCCNCCCNC(=O)C(=O)c3c[nH]c4ccc(C)cc34)c2c1.O=C(O)C(F)(F)F.O=C(O)C(F)(F)F [Compound 20d]	E. coli ATCC 25922	1.10
[H]/N=C(/N)N[C@H]1[C@H](O)[C@@H](O)[C@H](O[C@@H]2O[C@@H](C)[C@](O)(C=O)[C@H]2O[C@@H]2O[C@@H](CO)[C@H](O)[C@@H](O)[C@@H]2NC)[C@@H](N/C(N)=N\[H])[C@@H]1O [streptomycin, reference compound]	E. coli ATCC 25922	1.33
O=C(NCCCNCCCCCCCCCCNCCCNC(=O)C(=O)c1c[nH]c2c(F)cccc12)C(=O)c1c[nH]c2c(F)cccc12.O=C(O)C(F)(F)F.O=C(O)C(F)(F)F [Compound 21d]	E. coli ATCC 25922	0.80
Cc1cccc2c(C(=O)C(=O)NCCCNCCCCCCCNCCCNC(=O)C(=O)c3c[nH]c4c(C)cccc34)c[nH]c12.O=C(O)C(F)(F)F.O=C(O)C(F)(F)F [Compound 23b]	E. coli ATCC 25922	2.08
COc1cccc2c(C(=O)C(=O)NCCCNCCCCCCCNCCCNC(=O)C(=O)c3c[nH]c4c(OC)cccc34)c[nH]c12.O=C(O)C(F)(F)F.O=C(O)C(F)(F)F [Compound 22b]	E. coli ATCC 25922	2.30
COc1cccc2c(C(=O)C(=O)NCCCNCCCCCCCCCCNCCCNC(=O)C(=O)c3c[nH]c4c(OC)cccc34)c[nH]c12.O=C(O)C(F)(F)F.O=C(O)C(F)(F)F [Compound 22d]	E. coli ATCC 25922	1.70
O=C(NCCCNCCCCCCNCCCNC(=O)C(=O)c1c[nH]c2ccccc12)C(=O)c1c[nH]c2ccccc12.O=C(O)C(F)(F)F.O=C(O)C(F)(F)F [Compound 17a]	E. coli ATCC 25922	1.70
